Compiled record: IC50 values for PIK3CD (Human) across several sources.

MOLECULE: Cc1nn(C(C)c2cc(Cl)c(C#N)c3c2OCCN(C2CN(C(=O)NC(C)C)C2)C3)c2ncnc(N)c12 (stereo not drawn)
IC50: ≤ 100 nM

MOLECULE: C[C@H](Nc1ncnc2cccnc12)c1cc2cccc(Cl)c2c(C(=O)N(C)C)n1
IC50: < 10000 nM

MOLECULE: CC(=O)Nc1nc2ccc(-c3nn(Cc4cc5cccc(C)c5c(=O)n4-c4ccccc4C)c4ncnc(N)c34)cc2[nH]1
IC50: < 100 nM

MOLECULE: CN(CC(C)(C)O)C12CCC(CNc3nc(N4CCOCC4)cc(-n4c(C(F)F)nc5ccccc54)n3)(CC1)CC2
IC50: 13 nM

MOLECULE: COc1ccc(-c2cnc(N)c(C(=O)N[C@@H](C)c3cc4cccc(Cl)c4c(=O)n3-c3ccccc3)n2)cc1F
IC50: 1000 to 10000 nM

MOLECULE: CCOC(=O)N1CC(N2CCOc3c(C(C)n4nc(C)c5c(N)ncnc54)cc(Cl)c(C#N)c3C2)C1 (stereo not drawn)
IC50: ≤ 100 nM

MOLECULE: COc1ncc(-c2nc(N3CCOCC3)nc3c(CN4CC(C(C)(C)O)C4)csc23)cc1NS(C)(=O)=O
IC50: 19 nM

MOLECULE: C[C@H](Nc1ccc2c(c1)OCCn1cc(N3C(=O)COC[C@H]3C(F)F)nc1-2)C(N)=O
IC50: 24 nM

MOLECULE: C[C@H](NC(=O)c1nc(-c2cccc(S(=O)(=O)N3CCN(C)CC3)c2)cnc1N)c1cc2cccc(Cl)c2c(=O)n1-c1ccccc1
IC50: 1000 to 10000 nM

MOLECULE: C[C@H](Nc1ccc2c(c1)OCCn1c-2nc(N2C(=O)OC[C@H]2C(F)F)c1F)C(N)=O
IC50: 1400 nM

MOLECULE: C[C@H](NC(=O)c1nc(-c2cccc(S(=O)(=O)N(C)C)c2)cnc1N)c1cc2cccc(Cl)c2c(=O)n1-c1ccccc1
IC50: 1000 to 10000 nM

MOLECULE: Cc1cccc2cc(C(C)n3nc(-c4cn[nH]c4)c4c(N)ncnc43)n(C3CCN(C)CC3)c(=O)c12 (stereo not drawn)
IC50: < 1000 nM

MOLECULE: Cc1ccccc1-n1c(Cn2nc(CCC(N)=O)c3c(N)ncnc32)cc2cccc(C)c2c1=O
IC50: < 1000 nM

MOLECULE: C[C@H](Nc1ncnc2cccnc12)c1cc2cccc(Cl)c2c(C(=O)N2CCCOCC2)n1
IC50: < 1000 nM

MOLECULE: C[C@H](Nc1ncnc2[nH]cnc12)c1cc2cccc(-c3cnn(C)c3)c2c(Cl)n1
IC50: < 100 nM

----------
Compiled record: pIC50 values for PIK3CD (Human) across several sources.
pIC50: −log10 of the molar value.
REPORTED PROPERTY: pIC50

COMPOUND: CN1CCN(c2nc3cc(-c4ccc5oc(N)nc5c4)ccc3c(=O)n2C)CC1
TARGET UNDER TEST: PIK3CD (Human)
REPORTED PROPERTY: pIC50
RESULT: < 5.00
--
COMPOUND: N#Cc1nn(Cc2cc3ccccc3c(=O)n2-c2ccccc2F)c2ncnc(N)c12
TARGET UNDER TEST: PIK3CD (Human)
REPORTED PROPERTY: pIC50
RESULT: > 7.00
--
COMPOUND: CC(C)N1CCC(Oc2nc([C@H](C)Nc3ncnc4scnc34)cc3cccc(Cl)c23)CC1
TARGET UNDER TEST: PIK3CD (Human)
REPORTED PROPERTY: pIC50
RESULT: > 7.00
--
COMPOUND: CC1CN(C(=O)c2nc([C@H](C)Nc3ncnc4cccnc34)cc3cccc(Cl)c23)CCO1 (some centres unmarked)
TARGET UNDER TEST: PIK3CD (Human)
REPORTED PROPERTY: pIC50
RESULT: > 6.00
--
COMPOUND: CCS(=O)(=O)N1CCC(Nc2ncc3cc(C#N)c(=O)n(C4CCCC4)c3n2)CC1
TARGET UNDER TEST: PIK3CD (Human)
REPORTED PROPERTY: pIC50
RESULT: < 4.60
--
COMPOUND: C[C@H](Nc1ccc2c(c1)OCCn1cc(N3C(=O)CN(C)C[C@H]3C(F)F)nc1-2)C(N)=O
TARGET UNDER TEST: PIK3CD (Human)
REPORTED PROPERTY: pIC50
RESULT: 6.85
--
COMPOUND: C[C@H](NC(=O)c1c(N)nn2cccnc12)c1cc2cccc(-c3cccnc3)c2c(=O)n1-c1ccccc1
TARGET UNDER TEST: PIK3CD (Human)
REPORTED PROPERTY: pIC50
RESULT: 6.00 to 7.00
--
COMPOUND: Cc1ccccc1-n1c(Cn2nc(C#C[C@@H](C)O)c3c(N)ncnc32)cc2ccccc2c1=O
TARGET UNDER TEST: PIK3CD (Human)
REPORTED PROPERTY: pIC50
RESULT: > 6.00
